Target: hTLR7 (Homo sapiens, UniProt Q9NYK1)
Sequence (Q9NYK1 27-1049): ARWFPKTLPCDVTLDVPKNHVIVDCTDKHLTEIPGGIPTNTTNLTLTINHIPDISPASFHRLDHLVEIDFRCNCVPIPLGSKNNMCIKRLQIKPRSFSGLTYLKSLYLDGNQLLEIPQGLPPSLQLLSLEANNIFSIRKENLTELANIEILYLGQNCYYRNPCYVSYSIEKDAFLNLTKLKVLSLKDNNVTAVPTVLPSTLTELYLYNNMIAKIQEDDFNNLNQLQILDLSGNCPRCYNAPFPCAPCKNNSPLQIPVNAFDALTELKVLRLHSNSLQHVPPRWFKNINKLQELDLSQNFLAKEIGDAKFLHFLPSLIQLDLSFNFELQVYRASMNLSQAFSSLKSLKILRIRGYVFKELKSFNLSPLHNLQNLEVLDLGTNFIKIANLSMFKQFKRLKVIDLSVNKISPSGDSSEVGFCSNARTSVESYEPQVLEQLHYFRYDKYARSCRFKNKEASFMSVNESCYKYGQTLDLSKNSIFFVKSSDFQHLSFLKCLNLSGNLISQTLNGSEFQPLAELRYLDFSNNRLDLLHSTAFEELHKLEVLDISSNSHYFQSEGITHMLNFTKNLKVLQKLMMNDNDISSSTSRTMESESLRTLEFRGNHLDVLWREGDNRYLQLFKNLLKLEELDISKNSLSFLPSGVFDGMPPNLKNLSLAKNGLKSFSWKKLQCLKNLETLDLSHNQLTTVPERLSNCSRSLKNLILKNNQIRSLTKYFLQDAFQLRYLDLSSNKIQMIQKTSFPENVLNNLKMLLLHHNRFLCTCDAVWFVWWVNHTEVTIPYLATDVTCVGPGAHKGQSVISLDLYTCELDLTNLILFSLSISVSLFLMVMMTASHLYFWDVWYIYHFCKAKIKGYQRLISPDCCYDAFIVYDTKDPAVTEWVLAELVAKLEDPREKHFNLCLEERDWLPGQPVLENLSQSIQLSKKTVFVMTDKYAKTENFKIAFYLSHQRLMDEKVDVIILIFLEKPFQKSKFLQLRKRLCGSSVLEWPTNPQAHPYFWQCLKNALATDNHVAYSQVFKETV
Assay: Agonistic activity on human TLR7 in HEK-Blue hTLR7 cells (QUANTI-Blue)
Details: 24 h incubation, OD650, read-out: hTLR 7 EC50
Returns: string. Value is class 1 if measured EC50 is below 50 µM, and class 0 if it is greater than or equal to it.

Example entries begin here.
CCCC[C@](C)(CO)Nc1nc(N)nc2cc(-c3cc(=O)[nH]cc3CN3CCCCC3)ccc12 : class 0
C=CCCN(CCC=C)Cc1c[nH]c(=O)cc1-c1ccc2c(N[C@@](C)(CO)CCCC)nc(N)nc2c1 : class 0
C=CCCN(C)Cc1c[nH]c(=O)cc1-c1cnc2c(N[C@](C)(CCCC)CNC(=O)c3cnn(C)c3)nc(N)nc2c1 : class 0
CCCC[C@](C)(CO)Nc1nc(N)nc2cc(-c3cc(=O)[nH]cc3CN(C)C)ccc12 : class 0
CCCC[C@](C)(CO)Nc1nc(N)nc2cc(-c3cc(=O)[nH]cc3CSC)cnc12 : class 1

Query :: EC50 under 50 µM? Item: CCCC[C@](C)(CO)Nc1nc(N)nc2cc(-c3cc(=O)[nH]cc3CN(C)CCO)ccc12
Result :: class 0

Query :: EC50 under 50 µM? Item: C=CCCN(C)Cc1cn(C)c(=O)cc1-c1cnc2c(N[C@](C)(CCCC)CNC(=O)c3cnn(C)c3)nc(N)nc2c1
Result :: class 0

Query :: EC50 under 50 µM? Item: CCCCN(CCCC)Cc1c[nH]c(=O)cc1-c1cnc2c(N[C@@](C)(CO)CCCC)nc(N)nc2c1
Result :: class 0

Query :: EC50 under 50 µM? Item: C=CCCN(C)Cc1c[nH]c(=O)cc1-c1ccc2c(N[C@@](C)(CO)CCCC)nc(N)nc2c1
Result :: class 0

* * *

Biological target: hTLR8 (Homo sapiens, UniProt Q9NR97)
Test: Agonistic activity on human TLR8 in HEK-Blue hTLR8 cells (QUANTI-Blue)
Settings: 24 h incubation, OD650, read-out: hTLR 8 EC50
pEC50: −log10 of the molar value.
# cutoff 6 applies to pEC50; >= gives condition met, < gives condition not met

CCCC[C@](C)(CO)Nc1nc(N)nc2cc(-c3cc(=O)[nH]cc3CN3CCSCC3)cnc12 [Example 25] : condition met
CCCC[C@](C)(CO)Nc1nc(N)nc2cc(-c3cc(=O)n(C)cc3CN(C)CCC3CC3)cnc12 [Example 2] : condition met
CCCCN(C)Cc1c[nH]c(=O)cc1-c1cnc2c(N[C@@](C)(CO)CCCC)nc(N)nc2c1 [Example 69] : condition met
C=CCCN(C)Cc1c[nH]c(=O)cc1-c1cnc2c(N[C@](C)(CCCC)CNC(=O)c3cnn(C)c3)nc(N)nc2c1 [Example 44] : condition met
CCCC[C@](C)(CO)Nc1nc(N)nc2cc(-c3cc(=O)[nH]cc3CN(C)CCNC)cnc12 [Example 20] : condition not met

Query :: I'd appreciate it if you could say whether CCCC[C@](C)(CO)Nc1nc(N)nc2cc(-c3cc(=O)[nH]cc3CN3CCCCC3)cnc12 [Example 16] has pEC50 at least equal to 6.
Result :: condition met

Query :: I'd appreciate it if you could say whether CCCC[C@](C)(CO)Nc1nc(N)nc2cc(-c3cc(=O)[nH]cc3CN3CCN(C(C)(C)C)CC3)cnc12 [Example 23] has pEC50 at least equal to 6.
Result :: condition met

Query :: I'd appreciate it if you could say whether C=CCCN(C)Cc1cn(C)c(=O)cc1-c1cnc2c(N[C@@](C)(CO)CCCC)nc(N)nc2c1 [Example 7] has pEC50 at least equal to 6.
Result :: condition met

Query :: I'd appreciate it if you could say whether CCCC[C@](C)(CO)Nc1nc(N)nc2cc(-c3cc(=O)n(C)cc3CN3CCNCC3)cnc12 [Example 5] has pEC50 at least equal to 6.
Result :: condition not met

Query :: I'd appreciate it if you could say whether CCCC[C@](C)(CO)Nc1nc(N)nc2cc(-c3cc(=O)n(C)cc3CN(C)CCc3ccccc3)cnc12 [Example 1] has pEC50 at least equal to 6.
Result :: condition not met

Query :: I'd appreciate it if you could say whether C=CCCN(CC)Cc1c[nH]c(=O)cc1-c1cnc2c(N[C@@](C)(CO)CCCC)nc(N)nc2c1 [Example 18] has pEC50 at least equal to 6.
Result :: condition met

* * *

Examples of compounds with documented CYP2B6 Induction fold relative to blank control follow.
Tested on: CYP2B6
Test: Induction of CYP2B6 in frozen human hepatocytes
Assay type: in vitro ADME
Details: 72 h induction, concentration and readout not stated
Give only the figure.

Illustrative cases are given below, each with its answer.
C=CCCN(C)Cc1c[nH]c(=O)cc1-c1ccc2c(N[C@@](C)(CO)CCCC)nc(N)nc2c1 : 0.4
C=CCCN(C)Cc1c[nH]c(=O)cc1-c1cnc2c(N[C@@](C)(CO)CCCC)nc(N)nc2c1 : 1.3

// below: CYP2B6 Induction fold relative to blank control requested for another compound
Query :: Given CCCCN(C)Cc1c[nH]c(=O)cc1-c1cnc2c(N[C@@](C)(CO)CCCC)nc(N)nc2c1 , respond with its CYP2B6 Induction fold relative to blank control.
Result :: 0.9

* * *

Biological target: hERG channel (Homo sapiens, UniProt Q12809)
Sequence (Q12809 whole entry): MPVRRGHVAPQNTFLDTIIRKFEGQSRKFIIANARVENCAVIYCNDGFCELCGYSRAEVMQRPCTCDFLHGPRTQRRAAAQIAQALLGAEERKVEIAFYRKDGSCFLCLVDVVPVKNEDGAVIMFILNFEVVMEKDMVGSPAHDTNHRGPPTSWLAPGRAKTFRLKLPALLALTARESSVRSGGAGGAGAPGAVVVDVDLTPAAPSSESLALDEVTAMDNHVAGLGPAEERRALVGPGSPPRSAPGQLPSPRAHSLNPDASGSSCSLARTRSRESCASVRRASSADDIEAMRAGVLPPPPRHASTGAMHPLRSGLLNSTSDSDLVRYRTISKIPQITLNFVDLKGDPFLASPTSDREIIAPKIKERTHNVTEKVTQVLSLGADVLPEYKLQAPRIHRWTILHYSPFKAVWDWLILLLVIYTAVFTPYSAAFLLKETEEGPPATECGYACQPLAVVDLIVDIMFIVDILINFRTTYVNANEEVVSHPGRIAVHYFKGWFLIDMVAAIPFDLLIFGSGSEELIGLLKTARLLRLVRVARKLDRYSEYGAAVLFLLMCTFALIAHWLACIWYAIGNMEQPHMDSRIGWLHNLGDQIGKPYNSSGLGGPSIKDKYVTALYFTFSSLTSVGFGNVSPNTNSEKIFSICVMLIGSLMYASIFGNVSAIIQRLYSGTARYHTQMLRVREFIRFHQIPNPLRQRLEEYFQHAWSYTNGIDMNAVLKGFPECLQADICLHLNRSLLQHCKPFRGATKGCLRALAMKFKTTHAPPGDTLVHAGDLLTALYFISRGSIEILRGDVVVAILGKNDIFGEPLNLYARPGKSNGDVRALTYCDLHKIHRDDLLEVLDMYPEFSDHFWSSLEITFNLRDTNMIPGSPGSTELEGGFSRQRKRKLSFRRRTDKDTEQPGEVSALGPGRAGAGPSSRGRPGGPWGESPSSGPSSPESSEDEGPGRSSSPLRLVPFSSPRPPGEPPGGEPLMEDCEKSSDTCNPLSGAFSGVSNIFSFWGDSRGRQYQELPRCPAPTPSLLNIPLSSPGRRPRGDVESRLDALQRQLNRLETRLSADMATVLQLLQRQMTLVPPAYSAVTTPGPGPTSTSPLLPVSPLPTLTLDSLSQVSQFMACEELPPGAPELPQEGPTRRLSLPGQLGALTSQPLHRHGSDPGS
Assay: hERG channel current in HEK293 cells, automated patch clamp
Conditions: HEK-293 cells stably expressing hERG, whole-cell patch clamp, 0.3-30 μM
Examples of molecules with documented IC50 follow.

Illustrative cases are given below, each with its answer.
CCCCN(C)Cc1c[nH]c(=O)cc1-c1cnc2c(N[C@@](C)(CO)CCCC)nc(N)nc2c1 [Example 28] : > 30 µM
CCCC[C@](C)(CO)Nc1nc(N)nc2cc(-c3cc(=O)[nH]cc3CN(C)CCOC)cnc12 [Example 21] : > 30 µM

// below: IC50 requested for another molecule
Query :: Given CCCC[C@](C)(CO)Nc1nc(N)nc2cc(-c3cc(=O)n(C)cc3CN3CCCCC3)ccc12 [Example 8] , respond with its IC50.
Result :: > 30 µM

* * *

Target: hTLR7 (Homo sapiens)
Test: Agonistic activity on human TLR7 in HEK-Blue hTLR7 cells (QUANTI-Blue)
Details: 24 h incubation, OD650, read-out: hTLR 7 EC50
Examples of molecules with documented EC50 follow.
All answers are understood in µM, so give the number only.

Query :: State, for hTLR7 (Homo sapiens), measured EC50 of the molecule listed here: CCCCN(CCCC)Cc1c[nH]c(=O)cc1-c1ccc2c(N[C@@](C)(CO)CCCC)nc(N)nc2c1
Result :: 47.2

Query :: State, for hTLR7 (Homo sapiens), measured EC50 of the molecule listed here: CCCC[C@](C)(CO)Nc1nc(N)nc2cc(-c3cc(=O)[nH]cc3CN3CCC(F)(F)CC3)cnc12
Result :: 54.6

Query :: State, for hTLR7 (Homo sapiens), measured EC50 of the molecule listed here: CCCC[C@](C)(CO)Nc1nc(N)nc2cc(-c3cc(=O)[nH]cc3CN(C)CCC3CC3)cnc12
Result :: 50.8

* * *

Examples of molecules with documented EC50 follow.
Target: hTLR8 (Homo sapiens, UniProt Q9NR97)
Construct: expressed in transfected cells; host or cells: HEK-Blue hTLR8 cells
Sequence (Q9NR97 27-1041): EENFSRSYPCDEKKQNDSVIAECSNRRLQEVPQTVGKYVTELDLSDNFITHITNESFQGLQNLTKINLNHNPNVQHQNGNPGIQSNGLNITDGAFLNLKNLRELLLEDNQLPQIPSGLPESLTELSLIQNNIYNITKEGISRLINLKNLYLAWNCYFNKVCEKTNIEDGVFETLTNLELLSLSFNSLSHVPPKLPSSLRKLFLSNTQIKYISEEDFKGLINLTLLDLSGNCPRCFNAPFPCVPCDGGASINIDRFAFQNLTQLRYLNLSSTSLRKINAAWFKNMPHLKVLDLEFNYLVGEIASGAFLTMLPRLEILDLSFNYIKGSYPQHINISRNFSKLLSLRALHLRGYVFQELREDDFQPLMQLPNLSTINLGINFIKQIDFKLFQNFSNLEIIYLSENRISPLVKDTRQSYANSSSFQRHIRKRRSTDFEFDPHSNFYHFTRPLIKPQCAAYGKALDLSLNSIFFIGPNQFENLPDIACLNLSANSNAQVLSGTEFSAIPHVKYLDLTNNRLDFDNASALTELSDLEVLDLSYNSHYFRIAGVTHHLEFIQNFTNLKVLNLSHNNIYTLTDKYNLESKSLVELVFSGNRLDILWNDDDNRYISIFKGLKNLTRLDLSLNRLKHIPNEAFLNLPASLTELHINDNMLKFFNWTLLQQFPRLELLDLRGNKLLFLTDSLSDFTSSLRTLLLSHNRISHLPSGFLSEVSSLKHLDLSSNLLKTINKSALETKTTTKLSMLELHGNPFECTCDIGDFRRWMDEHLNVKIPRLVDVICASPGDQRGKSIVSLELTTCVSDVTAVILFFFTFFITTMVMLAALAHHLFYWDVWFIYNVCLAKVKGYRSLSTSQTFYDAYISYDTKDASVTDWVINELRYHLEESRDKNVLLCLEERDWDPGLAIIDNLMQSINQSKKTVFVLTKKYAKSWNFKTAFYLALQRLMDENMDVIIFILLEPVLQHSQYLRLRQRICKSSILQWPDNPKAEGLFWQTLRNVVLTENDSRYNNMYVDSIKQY
Experiment: Agonistic activity on human TLR8 in HEK-Blue hTLR8 cells (QUANTI-Blue)
Type: cell-based
Conditions: 24 h incubation, OD650, read-out: hTLR 8 EC50
All answers are understood in nM, so give the number only.

CCCC[C@](C)(CO)Nc1nc(N)nc2cc(-c3cc(=O)[nH]cc3CN3CCN(C)CC3)cnc12 [Example 22] : 980
C=CCCN(CCC=C)Cc1cn(C)c(=O)cc1-c1cnc2c(N[C@@](C)(CO)CCCC)nc(N)nc2c1 [Example 3] : 1460
CCCCNCc1c[nH]c(=O)cc1-c1ccc2c(N[C@@](C)(CO)CCCC)nc(N)nc2c1 [Example 58] : 918

Query :: Given CCCC[C@](C)(CO)Nc1nc(N)nc2cc(-c3cc(=O)[nH]cc3CN3CCC(F)(F)CC3)cnc12 [Example 26] , respond with its EC50.
Result :: 845

Query :: Given C=CCC(=O)N(C)Cc1c[nH]c(=O)cc1-c1cnc2c(N[C@@](C)(CO)CCCC)nc(N)nc2c1 [Example 40] , respond with its EC50.
Result :: 1520

Query :: Given CCCCN(C)Cc1c[nH]c(=O)cc1-c1cnc2c(N[C@](C)(CCCC)COC)nc(N)nc2c1 [Example 53] , respond with its EC50.
Result :: 680

Query :: Given CCCCN(CCCC)Cc1cn(C)c(=O)cc1-c1cnc2c(N[C@@](C)(CO)CCCC)nc(N)nc2c1 [Example 4] , respond with its EC50.
Result :: 1070

Query :: Given C=CCCN(C)Cc1c[nH]c(=O)cc1-c1cnc2c(N[C@@](C)(CO)CCCC)nc(N)nc2c1 [Example 9] , respond with its EC50.
Result :: 20

Query :: Given CCCC[C@](C)(CO)Nc1nc(N)nc2cc(-c3cc(=O)[nH]cc3CN3CCCCC3)ccc12 [Example 17] , respond with its EC50.
Result :: 220

// provenance: patent US20250163051A1
